- experimental target: SUMO-activating enzyme (Homo sapiens, UniProt Q9UBT2)
- Sequence (Q9UBE0 whole entry): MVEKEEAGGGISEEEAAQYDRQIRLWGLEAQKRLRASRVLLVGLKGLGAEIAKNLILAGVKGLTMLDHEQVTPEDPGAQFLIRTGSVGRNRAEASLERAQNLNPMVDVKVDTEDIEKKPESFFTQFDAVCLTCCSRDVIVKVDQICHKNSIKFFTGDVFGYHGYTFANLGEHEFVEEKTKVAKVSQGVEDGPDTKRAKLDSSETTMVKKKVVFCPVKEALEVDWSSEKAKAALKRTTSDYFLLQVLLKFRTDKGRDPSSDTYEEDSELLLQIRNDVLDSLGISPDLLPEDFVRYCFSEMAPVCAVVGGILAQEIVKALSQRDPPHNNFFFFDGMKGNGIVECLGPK
- Sequence (Q9UBT2 whole entry): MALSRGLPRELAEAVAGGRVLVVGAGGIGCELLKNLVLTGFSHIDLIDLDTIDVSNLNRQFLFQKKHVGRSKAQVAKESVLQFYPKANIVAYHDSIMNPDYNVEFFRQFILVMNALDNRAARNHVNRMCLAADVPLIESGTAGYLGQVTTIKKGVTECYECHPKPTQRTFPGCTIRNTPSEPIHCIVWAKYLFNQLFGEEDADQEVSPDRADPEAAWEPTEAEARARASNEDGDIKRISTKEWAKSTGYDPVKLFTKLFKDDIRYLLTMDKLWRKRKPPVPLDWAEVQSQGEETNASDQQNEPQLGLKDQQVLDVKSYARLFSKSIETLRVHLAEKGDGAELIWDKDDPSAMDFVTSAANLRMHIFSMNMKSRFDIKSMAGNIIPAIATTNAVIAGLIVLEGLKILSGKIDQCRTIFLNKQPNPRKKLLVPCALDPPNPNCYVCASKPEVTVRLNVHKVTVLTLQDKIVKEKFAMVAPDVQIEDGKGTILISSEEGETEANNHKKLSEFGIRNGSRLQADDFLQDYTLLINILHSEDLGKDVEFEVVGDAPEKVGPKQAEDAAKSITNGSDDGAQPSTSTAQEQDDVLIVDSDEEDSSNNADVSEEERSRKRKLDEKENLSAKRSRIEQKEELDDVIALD
- measurement notes: Inhibition of recombinant SAE (unknown origin) assessed as reduction in transfer of SUMO1 to UBC9 using SUMO1 as a substrate in presence of ATP at Km concentration by HTRF assay
- Assay type: protein-complex assay
IC50 less than 1 nM is Met; IC50 greater than or equal to 1 nM is Not met.

[[record]]
compound = "NS(=O)(=O)OC[C@H]1C[C@@H](Nc2ncncc2C(=O)c2cc(C(O)c3cccc(Cl)c3)cs2)C[C@@H]1O (stereo in doubt; 31)"
assigned_label = "Met"

[[record]]
compound = "CC(N)(c1cccc(Cl)c1)c1csc(C(=O)c2cncnc2N[C@@H]2C[C@H](COS(N)(=O)=O)[C@@H](O)C2)c1 (stereo not given in full)"
assigned_label = "Met"

[[record]]
compound = "CN(C)C(c1cccc(Cl)c1)c1csc(C(=O)c2cncnc2N[C@@H]2C[C@H](COS(N)(=O)=O)[C@@H](O)C2)c1 (stereo not given in full)"
assigned_label = "Not met"


Moving on to the next compound.
Enquiry: Strictly below 1 nM in IC50? Cc1sc(C(=O)c2cncnc2N[C@@H]2C[C@H](COS(N)(=O)=O)[C@@H](O)C2)cc1C1OCCc2ccc(Cl)cc21 (stereo in doubt)
Return: Met
